biological target: Adenosine receptor A2a (Homo sapiens); assay: biochemical
Sequence (P29274 whole entry): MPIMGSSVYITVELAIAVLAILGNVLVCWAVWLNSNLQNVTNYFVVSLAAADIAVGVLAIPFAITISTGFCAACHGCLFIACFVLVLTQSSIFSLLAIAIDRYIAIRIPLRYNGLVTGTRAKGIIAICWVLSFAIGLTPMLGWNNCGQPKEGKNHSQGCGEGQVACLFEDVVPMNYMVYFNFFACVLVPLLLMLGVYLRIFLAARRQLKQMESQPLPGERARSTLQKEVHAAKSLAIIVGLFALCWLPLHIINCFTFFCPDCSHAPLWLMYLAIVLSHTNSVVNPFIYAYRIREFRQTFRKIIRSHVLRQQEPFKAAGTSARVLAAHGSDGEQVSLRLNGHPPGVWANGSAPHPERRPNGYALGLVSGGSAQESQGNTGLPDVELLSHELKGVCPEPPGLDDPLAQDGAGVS
Label criterion met when Ki < 50 nM; otherwise criterion not met.

# Smiles repr, Class assignment
data = [
    ("N#Cc1c(-c2ccccc2)nc(N)nc1-c1ccccc1", "criterion met"),
    ("N#Cc1c(N)nc(-c2ccccc2)nc1-c1ccc2c(c1)OCO2", "criterion met"),
    ("COc1ccc(C(=O)Nc2nc(-c3ccccc3)c(C#N)c(-c3ccccc3)n2)cc1", "criterion not met"),
    ("Cc1ccc(C(=O)Nc2nc(-c3ccccc3)c(C#N)c(-c3ccccc3)n2)cc1", "criterion not met"),
    ("N#Cc1c(-c2ccccc2)nc(N)nc1-c1ccc2c(c1)OCO2", "criterion met"),
    ("O=C(Nc1cc(-c2ccc3c(c2)OCO3)nc(-c2ccccc2)n1)C1CCCC1", "criterion not met"),
    ("Nc1nc(-c2ccccc2)cc(-c2ccc3c(c2)OCO3)n1", "criterion not met"),
    ("N#Cc1c(NC(=O)C2CCCC2)nc(-c2ccccc2)nc1-c1ccccc1", "criterion not met"),
    ("N#Cc1c(-c2ccccc2)nc(NC(=O)C2CCCC2)nc1-c1ccccc1", "criterion not met"),
]

====

Sequence of the target: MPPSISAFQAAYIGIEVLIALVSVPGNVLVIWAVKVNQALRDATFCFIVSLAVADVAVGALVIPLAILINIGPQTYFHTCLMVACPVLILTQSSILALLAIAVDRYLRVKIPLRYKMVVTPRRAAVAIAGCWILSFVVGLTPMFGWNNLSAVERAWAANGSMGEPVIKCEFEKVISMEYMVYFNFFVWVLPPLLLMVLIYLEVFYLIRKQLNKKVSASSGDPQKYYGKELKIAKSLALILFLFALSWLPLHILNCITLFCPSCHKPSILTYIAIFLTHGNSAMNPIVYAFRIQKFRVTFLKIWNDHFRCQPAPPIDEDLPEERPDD

# Smiles repr, Units, Ki
rows = [
    ("O=C(Nc1cc(-c2ccc3c(c2)OCO3)nc(-c2ccccc2)n1)C1CC1", "nM", 13),
    ("CCC(CC)C(=O)Nc1nc(-c2ccccc2)cc(-c2ccc3c(c2)OCO3)n1", "nM", 17.6),
    ("CCCC(=O)Nc1cc(-c2ccc3c(c2)OCO3)nc(-c2ccccc2)n1", "nM", 6.8),
    ("Cc1ccc(C(=O)Nc2nc(-c3ccccc3)c(C#N)c(-c3ccccc3)n2)cc1", "nM", 115),
    ("N#Cc1c(-c2ccccc2)nc(NC(=O)c2ccc(Cl)cc2)nc1-c1ccccc1", "nM", 92.3),
    ("Nc1nc(-c2ccccc2)cc(-c2ccccc2)n1", "nM", 17.7),
    ("N#Cc1c(-c2ccccc2)nc(NC(=O)C2CC2)nc1-c1ccccc1", "nM", 9.4),
    ("N#Cc1c(NC(=O)C2CC2)nc(-c2ccccc2)nc1-c1ccccc1", "nM", 27.9),
    ("CCC(CC)C(=O)Nc1nc(-c2ccccc2)nc(-c2ccc3c(c2)OCO3)c1C#N", "nM", 18.4),
    ("N#Cc1c(NC(=O)C2CCCC2)nc(-c2ccccc2)nc1-c1ccccc1", "nM", 5.3),
]

====

# Ki per entry
Target sequence: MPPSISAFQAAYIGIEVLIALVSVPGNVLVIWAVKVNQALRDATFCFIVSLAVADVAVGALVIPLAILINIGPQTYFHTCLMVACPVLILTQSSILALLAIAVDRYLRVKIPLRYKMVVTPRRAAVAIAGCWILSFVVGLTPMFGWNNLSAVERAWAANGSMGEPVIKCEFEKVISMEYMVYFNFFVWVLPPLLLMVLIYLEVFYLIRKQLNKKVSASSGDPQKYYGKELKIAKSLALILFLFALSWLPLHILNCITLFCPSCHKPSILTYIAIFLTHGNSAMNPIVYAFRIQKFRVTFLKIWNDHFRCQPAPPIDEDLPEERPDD

# Smiles repr, Ki
records = [
    ("CCC(CC)C(=O)Nc1cc(-c2ccc3c(c2)OCO3)nc(-c2ccccc2)n1", "27.9 nM"),
    ("CC(C)C(=O)Nc1nc(-c2ccccc2)c(C#N)c(-c2ccccc2)n1", "2.9 nM"),
    ("N#Cc1c(-c2ccccc2)nc(NC(=O)C2CCCC2)nc1-c1ccccc1", "1.2 nM"),
]

====

biological target: Adenosine receptor A2a (Homo sapiens); assay: Displacement of [3H]ZM-241385 from human adenosine A2A receptor expressed in HEK293 cells at 1 uM; type: cell-based

# Smiles repr, Units, Activity
data = [
    ("CCC(CC)C(=O)Nc1nc(-c2ccccc2)nc(-c2ccc3c(c2)OCO3)c1C#N", "%", 0),
    ("CCCC(=O)Nc1nc(-c2ccccc2)cc(-c2ccc3c(c2)OCO3)n1", "%", 8),
    ("N#Cc1c(-c2ccccc2)nc(NC(=O)c2ccco2)nc1-c1ccccc1", "%", 42),
    ("N#Cc1c(-c2ccccc2)nc(NC(=O)c2ccccc2)nc1-c1ccccc1", "%", 48),
    ("O=C(Nc1nc(-c2ccccc2)cc(-c2ccc3c(c2)OCO3)n1)C1CCCC1", "%", 26),
    ("CCC(CC)C(=O)Nc1nc(-c2ccccc2)cc(-c2ccc3c(c2)OCO3)n1", "%", 33),
    ("N#Cc1c(-c2ccccc2)nc(NC(=O)c2ccc(Cl)c(Cl)c2)nc1-c1ccccc1", "%", 35),
    ("CCCC(=O)Nc1nc(-c2ccccc2)nc(-c2ccc3c(c2)OCO3)c1C#N", "%", 23),
]

Provenance of the data: ChEMBL document CHEMBL1143999
